EC50 by entry:
test: Antiviral activity against Mouse Cytomegalovirus Smith (ATCC VR-1399) infected in mouse MEF cells assessed as reduction in plaque formation measured after 3 days by crystal violet staining based assay; type: functional, cell-based, Murine cytomegalovirus (strain Smith); conditions: Murid betaherpesvirus 1, ATCC VR-1399, MEF, 72 h; read-out: EC50
// units = nM; emit number, no label

// solved cases for EC50 follow
>  <testSmiles>
CCc1ccc(NC(=O)[C@H](Cc2c[nH]c3ccccc23)NC(=O)[C@@H]2Cc3ccccc3CN2)cc1

>  <unitsOfMeasure>
nM

>  <EC50>
11700

$$$$
>  <testSmiles>
Nc1nc2c(ncn2COC(CO)CO)c(=O)[nH]1

>  <unitsOfMeasure>
nM

>  <EC50>
960

$$$$

What the record says about CC(C)NC(=O)C1CCN(C(=O)c2cc3sccc3n2Cc2ccc(Cl)cc2)CC1 : EC50 is 1000

###

test system: Human alphaherpesvirus 1; assay: Antiviral activity against HSV 1 infected in African green monkey Vero cells assessed as reduction in plaque formation incubated for 36 hrs by crystal violet staining based assay; format: functional, organism-based; conditions: Human alphaherpesvirus 1, Vero, 36 h; read-out: EC50
assayReadout: EC50

The recorded EC50 with Human alphaherpesvirus 1 for CCc1ccc(NC(=O)[C@H](Cc2c[nH]c3ccccc23)NC(=O)[C@@H]2Cc3ccccc3CN2)cc1 was 1780 nM

###

test system: Human gammaherpesvirus 4; experiment: Antiviral activity against EBV infected in human AKATA cells assessed as reduction in IgG-induced lytic virus replication measured at 48 hrs post-lytic induction by qRT-PCR analysis; type: functional, organism-based; conditions: human gammaherpesvirus 4, 48 h; read-out: EC50
EC50 by entry:
// units = µM; emit number, no label

>  <testSmiles>
Nc1nc2c(ncn2COC(CO)CO)c(=O)[nH]1

>  <EC50 (µM)>
5.2

$$$$

Shifting focus to the compound that follows.
What the record says about CCN1CCN(CCCNC(=O)c2ccc3c(c2)sc2nc(-c4ccc(OC)cc4)cn23)CC1 : EC50 is 1.92
